system: Staphylococcus cohnii; experiment: Antibacterial activity against methicillin-resistant coagulase-negative Staphylococcus cohnii clinical isolate by broth microdilution method; format: functional

# compound, MIC50 (µg/mL)
data = [
    ("CCCCCCCCCCNCCN[C@@]1(C)C[C@H](O[C@H]2[C@H](Oc3c4cc5cc3Oc3ccc(cc3Cl)[C@@H](O)[C@@H](NC(=O)[C@@H](CC(C)C)NC)C(=O)N[C@@H](CC(N)=O)C(=O)N[C@H]5C(=O)N[C@H]3C(=O)N[C@H](C(=O)N[C@H](C(=O)O)c5cc(O)c(CNCP(=O)(O)O)c(O)c5-c5cc3ccc5O)[C@H](O)c3ccc(c(Cl)c3)O4)O[C@H](CO)[C@@H](O)[C@@H]2O)O[C@@H](C)[C@H]1O [TELAVANCIN]", 0.25),
    ("CCCCCCCCCC(=O)N[C@@H](Cc1c[nH]c2ccccc12)C(=O)N[C@H](CC(N)=O)C(=O)N[C@@H](CC(=O)O)C(=O)N[C@@H]1C(=O)NCC(=O)N[C@@H](CCCN)C(=O)N[C@@H](CC(=O)O)C(=O)N[C@H](C)C(=O)N[C@@H](CC(=O)O)C(=O)NCC(=O)N[C@H](CO)C(=O)N[C@@H]([C@H](C)CC(=O)O)C(=O)N[C@@H](CC(=O)c2ccccc2N)C(=O)O[C@@H]1C", 0.5),
    ("CC(=O)NC[C@H]1CN(c2ccc(N3CCOCC3)c(F)c2)C(=O)O1 [LINEZOLID]", 1),
    ("CN[C@H](CC(C)C)C(=O)N[C@H]1C(=O)N[C@@H](CC(N)=O)C(=O)N[C@H]2C(=O)N[C@H]3C(=O)N[C@H](C(=O)N[C@H](C(=O)O)c4cc(O)cc(O)c4-c4cc3ccc4O)[C@H](O)c3ccc(c(Cl)c3)Oc3cc2cc(c3O[C@@H]2O[C@H](CO)[C@@H](O)[C@H](O)[C@H]2O[C@H]2C[C@](C)(N)[C@H](O)[C@H](C)O2)Oc2ccc(cc2Cl)[C@H]1O [VANCOMYCIN]", 2),
]

---

Each entry below carries its recorded MIC50.
test system: Mammaliicoccus sciuri; assay: Antibacterial activity against methicillin-resistant coagulase-negative Staphylococcus sciuri clinical isolate by broth microdilution method; format: functional

# molecule, MIC50
rows = [
    ("CC(=O)NC[C@H]1CN(c2ccc(N3CCOCC3)c(F)c2)C(=O)O1", "1 µg/mL"),
    ("CCCCCCCCCCNCCN[C@@]1(C)C[C@H](O[C@H]2[C@H](Oc3c4cc5cc3Oc3ccc(cc3Cl)[C@@H](O)[C@@H](NC(=O)[C@@H](CC(C)C)NC)C(=O)N[C@@H](CC(N)=O)C(=O)N[C@H]5C(=O)N[C@H]3C(=O)N[C@H](C(=O)N[C@H](C(=O)O)c5cc(O)c(CNCP(=O)(O)O)c(O)c5-c5cc3ccc5O)[C@H](O)c3ccc(c(Cl)c3)O4)O[C@H](CO)[C@@H](O)[C@@H]2O)O[C@@H](C)[C@H]1O", "0.25 µg/mL"),
    ("CCCCCCCCCC(=O)N[C@@H](Cc1c[nH]c2ccccc12)C(=O)N[C@H](CC(N)=O)C(=O)N[C@@H](CC(=O)O)C(=O)N[C@@H]1C(=O)NCC(=O)N[C@@H](CCCN)C(=O)N[C@@H](CC(=O)O)C(=O)N[C@H](C)C(=O)N[C@@H](CC(=O)O)C(=O)NCC(=O)N[C@H](CO)C(=O)N[C@@H]([C@H](C)CC(=O)O)C(=O)N[C@@H](CC(=O)c2ccccc2N)C(=O)O[C@@H]1C", "0.5 µg/mL"),
    ("CN[C@H](CC(C)C)C(=O)N[C@H]1C(=O)N[C@@H](CC(N)=O)C(=O)N[C@H]2C(=O)N[C@H]3C(=O)N[C@H](C(=O)N[C@H](C(=O)O)c4cc(O)cc(O)c4-c4cc3ccc4O)[C@H](O)c3ccc(c(Cl)c3)Oc3cc2cc(c3O[C@@H]2O[C@H](CO)[C@@H](O)[C@H](O)[C@H]2O[C@H]2C[C@](C)(N)[C@H](O)[C@H](C)O2)Oc2ccc(cc2Cl)[C@H]1O", "2 µg/mL"),
]
